Reference source for all entries: patent US20080096832A1

assay: Pharmacokinetic drug-drug interaction of the compound of the formula I and ritonavir in healthy volunteers (single dose, alone and with RTV); assay type: in vivo, human; settings: human, plasma, oral, without ritonavir, single dose range of 1-100 mg; read-out: half-life without ritonavir (converted)
assay.readout: half-life

Give the value of half-life reported for the following: `CCN1c2ncc(CCOc3cc[n+]([O-])c4ccccc34)cc2C(=O)N(C)c2cccnc21` ~2 h

----------
test: Pharmacokinetic drug-drug interaction of the compound of the formula I and ritonavir in healthy volunteers (single dose, alone and with RTV); assay type: in vivo, human; settings: human, plasma, oral, 5 mg, 5 mg alone (no RTV), mean
assay.readout: Tmax (h)
Note: unit h is implicit; provide only the numeric part.

Give the value of Tmax reported for the following: CCN1c2ncc(CCOc3cc[n+]([O-])c4ccccc34)cc2C(=O)N(C)c2cccnc21 [the compound of the formula I] 1.5
